Hey, just so you know, these numbers are from the supplement of paper PMC10338343.

Quick list: pre-steady-state target cleavage rate per entry.
system: EfPiwi piRISC loaded with piRNA #1 (26 nt); experiment: pre-steady-state target cleavage rate (min^-1); auxiliary factor: 500 nM Ephydatia muelleri Gtsf1; guide: piRNA #1 5'p-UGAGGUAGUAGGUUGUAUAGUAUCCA; MIWI and MILI are mouse PIWI proteins and EfPiwi is from a freshwater sponge; tags in brackets are library labels; higher = faster piRNA-guided slicing of the target
REPORTED METRIC: pre-steady-state target cleavage rate

INSERT INTO results (residue_sequence, tgt, qualifier_operator, recorded_value) VALUES
  ('GGAGACCUAUCUAUACUACCUACUACCUCA', 'EfPiwi piRISC loaded with piRNA #1 (26 nt)', '=', 0.00437),
  ('GGAGACCAUACUAUACAACCUACUACCCUCA', 'EfPiwi piRISC loaded with piRNA #1 (26 nt)', '=', 0.00445),
  ('GGAGUGGAUUCUAUACAACCUACUACCUCA', 'EfPiwi piRISC loaded with piRNA #1 (26 nt)', '=', 0.00893),
  ('GGAGUGGAUAGUAUACAACCUACUUCCUCA', 'EfPiwi piRISC loaded with piRNA #1 (26 nt)', '=', 0.00264),
  ('GGAGACCUAUGUAUACAACCUACAACCACA', 'EfPiwi piRISC loaded with piRNA #1 (26 nt)', '<', 0.0001),
  ('GGAGACGAUACUAUACAACCUUCUACCUGA', 'EfPiwi piRISC loaded with piRNA #1 (26 nt)', '=', 0.0056),
  ('GGAGACCUAUGAUAUGUUGCUACUACCUA', 'EfPiwi piRISC loaded with piRNA #1 (26 nt)', '<', 0.0001),
  ('GGAGUGGAUACUAUACACACCUACUACCUCA', 'EfPiwi piRISC loaded with piRNA #1 (26 nt)', '=', 0.0105),
  ('GGAGACCUUACUAUCCAACCUACUACCUCA', 'EfPiwi piRISC loaded with piRNA #1 (26 nt)', '=', 0.0791),
  ('GGAGUGGUUACUUUACAACCUACUACCUCA', 'EfPiwi piRISC loaded with piRNA #1 (26 nt)', '=', 0.00342),
  ('GGAGACCAUACUAUACAACCUACUACGUCA', 'EfPiwi piRISC loaded with piRNA #1 (26 nt)', '=', 0.0053),
  ('GGAGUGGAUACUAUACGACCUACUACCUCA', 'EfPiwi piRISC loaded with piRNA #1 (26 nt)', '=', 0.0922),
  ('GGAGACGAUACUAUACUACCUACUACCACA', 'EfPiwi piRISC loaded with piRNA #1 (26 nt)', '=', 0.00202),
  ('GGAGACCUUACUAUACAUCCUACUACCUGA', 'EfPiwi piRISC loaded with piRNA #1 (26 nt)', '=', 0.00345),
  ('GGAGACCUUAUCUAUACAACCUACUACCUCA', 'EfPiwi piRISC loaded with piRNA #1 (26 nt)', '=', 0.0368),
  ('GGAGAGGAUACUAUACAAGCCUACUACCUCA', 'EfPiwi piRISC loaded with piRNA #1 (26 nt)', '=', 0.00835),
  ('GGAGACGAUACUAUACAACCUACUAGCUCA', 'EfPiwi piRISC loaded with piRNA #1 (26 nt)', '=', 0.00381),
  ('GGAGUGGAUACUAUUCAACCUUCUACCUCA', 'EfPiwi piRISC loaded with piRNA #1 (26 nt)', '=', 0.00433),
  ('GGAGUGGAUACUAAACAAGCUACUACCUCA', 'EfPiwi piRISC loaded with piRNA #1 (26 nt)', '=', 0.00401),
  ('GGAGACGAUUCUAUACAACCUAGUACCUCA', 'EfPiwi piRISC loaded with piRNA #1 (26 nt)', '=', 0.00392),
  ('GGAGACCUUACUCUACAACCUACUACCUCA', 'EfPiwi piRISC loaded with piRNA #1 (26 nt)', '=', 0.0532),
  ('GGAGACCUUACUUAUACAACCUACUACCUCA', 'EfPiwi piRISC loaded with piRNA #1 (26 nt)', '=', 0.00736),
  ('GGAGUGGAUACUAUACUUCCUACUACCUCA', 'EfPiwi piRISC loaded with piRNA #1 (26 nt)', '=', 0.0195),
  ('GGAGUGGAUACUAUAGAACGUACUACCUCA', 'EfPiwi piRISC loaded with piRNA #1 (26 nt)', '=', 0.00156),
  ('GGAGUGGAUACUAUACAACCUACUAACUCA', 'EfPiwi piRISC loaded with piRNA #1 (26 nt)', '=', 0.00991),
  ('GGAGACGAUACUAACAACCUACUACCUCA', 'EfPiwi piRISC loaded with piRNA #1 (26 nt)', '=', 0.00704),
  ('GGAGACCAUACUUUACAACCUACUUCCUCA', 'EfPiwi piRISC loaded with piRNA #1 (26 nt)', '=', 0.00404),
  ('GGAGUGGAUAGCUAUACAACCUACUACCUCA', 'EfPiwi piRISC loaded with piRNA #1 (26 nt)', '=', 0.00584),
  ('GGAGACCAUACUAUACACCCUACUACCUCA', 'EfPiwi piRISC loaded with piRNA #1 (26 nt)', '=', 0.00656),
  ('GGAGAGGAUACAAUACAACCUACUAGCUCA', 'EfPiwi piRISC loaded with piRNA #1 (26 nt)', '=', 0.00253),
  ('GGAGACCAUACUAUACAACCUAUCUACCUCA', 'EfPiwi piRISC loaded with piRNA #1 (26 nt)', '=', 0.00419),
  ('GGAGAGGAUACUAUACAACCUACUACUCA', 'EfPiwi piRISC loaded with piRNA #1 (26 nt)', '=', 0.00563),
  ('GGAGUGGAUACUAUUCAACCUACUAGCUCA', 'EfPiwi piRISC loaded with piRNA #1 (26 nt)', '=', 0.0025),
  ('GGAGAGGAUACUAUACAUGCUACUACCUCA', 'EfPiwi piRISC loaded with piRNA #1 (26 nt)', '=', 0.0065),
  ('GGAGACCUAUCUCUACAACCUACUACCUCA', 'EfPiwi piRISC loaded with piRNA #1 (26 nt)', '=', 0.00937),
  ('GGAGUGGAUACUAUACAACCUACUUGCUCA', 'EfPiwi piRISC loaded with piRNA #1 (26 nt)', '=', 0.0047),
  ('GGAGACGAUAUUAUACAACCUACUACCUCA', 'EfPiwi piRISC loaded with piRNA #1 (26 nt)', '=', 0.00616),
  ('GGAGACCUAUGAUAUCAACCUACAUGCUCA', 'EfPiwi piRISC loaded with piRNA #1 (26 nt)', '<', 0.0001),
  ('GGAGAGGAUACUAUACCAACCUACUACCUCA', 'EfPiwi piRISC loaded with piRNA #1 (26 nt)', '=', 0.00837),
  ('GGAGACCUAACUAUACAACCUACUACCCCA', 'EfPiwi piRISC loaded with piRNA #1 (26 nt)', '=', 0.00474),
  ('GGAGUGGAUACUAUACAACCUACUUCGUCA', 'EfPiwi piRISC loaded with piRNA #1 (26 nt)', '=', 0.00391),
  ('GGAGACCAAUGUAUACAACCUACUACCUCA', 'EfPiwi piRISC loaded with piRNA #1 (26 nt)', '=', 0.0133),
  ('GGAGACCAUAGCUAUACAACCUACUACCUCA', 'EfPiwi piRISC loaded with piRNA #1 (26 nt)', '=', 0.0108),
  ('GGAGAGGAUUCUAUACAACGUACUACCUCA', 'EfPiwi piRISC loaded with piRNA #1 (26 nt)', '=', 0.00249),
  ('GGAGACCAUACUAUACAACCUAGAUCCUCA', 'EfPiwi piRISC loaded with piRNA #1 (26 nt)', '=', 0.00423),
  ('GGAGACCUAACUAUACAACCUAGUACCUCA', 'EfPiwi piRISC loaded with piRNA #1 (26 nt)', '=', 0.00385),
  ('GGAGACCUAACUAUACAACCACUACCUCA', 'EfPiwi piRISC loaded with piRNA #1 (26 nt)', '=', 0.00546),
  ('GGAGUGGAUACUAUACAACCUACUACUUCA', 'EfPiwi piRISC loaded with piRNA #1 (26 nt)', '=', 0.104),
  ('GGAGACCUAAGAAUACAACCUACUACCUCA', 'EfPiwi piRISC loaded with piRNA #1 (26 nt)', '=', 0.00727),
  ('GGAGUGGAUACUAAUCAACCUACUACCUCA', 'EfPiwi piRISC loaded with piRNA #1 (26 nt)', '=', 0.00495),
  ('GGAGACCUAUGAAUACAACCUACUACCUCA [g2:g18:cont:t1A]', 'EfPiwi piRISC loaded with piRNA #1 (26 nt)', '=', 0.00706),
  ('GGAGAGGAUACUAUACAACGUUCUACCUCA', 'EfPiwi piRISC loaded with piRNA #1 (26 nt)', '=', 0.00409),
  ('GGAGAGGAUACUUUACAACCUACUUCCUCA', 'EfPiwi piRISC loaded with piRNA #1 (26 nt)', '=', 0.00239),
  ('GGAGACGAUACUAUACAACCUACAACCACA', 'EfPiwi piRISC loaded with piRNA #1 (26 nt)', '=', 0.00436),
  ('GGAGACCUUACUAUACAACCUACUACCUAA', 'EfPiwi piRISC loaded with piRNA #1 (26 nt)', '=', 0.00756);
